Quick reference: zone of inhibition at 100 µg/mL of the listed items.
system: Saccharomyces cerevisiae; experiment: Antifungal activity against Saccharomyces cerevisiae MTCC 36 at 100 ug/ml after 48 hrs by agar cup diffusion method; format: functional; details: MTCC 36, 48 h, read-out: DIZ
testReadout: zone of inhibition at 100 µg/mL (mm)

> print(dat)
                            smilesstructure                      testreadout  unitlabel  measvalue
1  O=c1c2ccccc2nc(C(F)(F)F)n1Cc1cn(CCC(F)(F)C(F)(F)C(F)(F)C(F)(F)C(F)(F)C(F)(F)C(F)(F)C(F)(F)F)nn1  zone of inhibition at 100 µg/mL         mm          9
2           C#CCn1c(-c2ccccc2)nc2ccccc2c1=O  zone of inhibition at 100 µg/mL         mm         12
3  O=c1c2ccccc2nc(-c2c(F)cccc2F)n1Cc1cn(CCC(F)(F)C(F)(F)C(F)(F)C(F)(F)C(F)(F)C(F)(F)C(F)(F)C(F)(F)F)nn1  zone of inhibition at 100 µg/mL         mm          9
4  FC(F)(F)C(F)(F)C(F)(F)C(F)(F)C(F)(F)C(F)(F)C(F)(F)C(F)(F)CCn1cc(COc2nc(-c3ccccc3)nc3ccccc23)nn1  zone of inhibition at 100 µg/mL         mm         10
5  FC(F)(F)C(F)(F)C(F)(F)C(F)(F)C(F)(F)C(F)(F)C(F)(F)C(F)(F)CCn1nncc1COc1nc(-c2ccccc2)nc2ccccc12  zone of inhibition at 100 µg/mL         mm          9
6  O=c1c2ccccc2nc(-c2ccccc2)n1Cc1cn(CCC(F)(F)C(F)(F)C(F)(F)C(F)(F)C(F)(F)C(F)(F)F)nn1  zone of inhibition at 100 µg/mL         mm         12

---

tested on: Candida albicans; assay: Antifungal activity against Candida albicans MTCC 227 at 30 ug/ml after 48 hrs by agar cup diffusion method; assay type: functional; conditions: MTCC 227, 48 h, read-out: DIZ
testReadout: zone of inhibition at 30 µg/mL

> print(dat)
                            smilesstructure                     testreadout  measvalue
1           C#CCn1c(-c2ccccc2)nc2ccccc2c1=O  zone of inhibition at 30 µg/mL       7 mm
2            C#CCOc1nc(-c2ccccc2)nc2ccccc12  zone of inhibition at 30 µg/mL       7 mm
3  O=c1c2ccccc2nc(-c2c(F)cccc2F)n1Cc1cn(CCC(F)(F)C(F)(F)C(F)(F)C(F)(F)C(F)(F)C(F)(F)C(F)(F)C(F)(F)F)nn1  zone of inhibition at 30 µg/mL       7 mm
4  FC(F)(F)C(F)(F)C(F)(F)C(F)(F)C(F)(F)C(F)(F)C(F)(F)C(F)(F)CCn1cc(COc2nc(-c3ccccc3)nc3ccccc23)nn1  zone of inhibition at 30 µg/mL       7 mm
5  O=c1c2ccccc2nc(C(F)(F)F)n1Cc1cn(CCC(F)(F)C(F)(F)C(F)(F)C(F)(F)C(F)(F)C(F)(F)C(F)(F)C(F)(F)F)nn1  zone of inhibition at 30 µg/mL       7 mm
6  O=c1c2ccccc2nc(-c2ccccc2)n1Cc1cn(CCC(F)(F)C(F)(F)C(F)(F)C(F)(F)C(F)(F)C(F)(F)F)nn1  zone of inhibition at 30 µg/mL       9 mm

---

tested on: Aspergillus niger; assay: Antifungal activity against Aspergillus niger MTCC 1344 at 100 ug/ml after 48 hrs by agar cup diffusion method; type: functional; conditions: MTCC 1344, 48 h, read-out: DIZ
Quick reference: zone of inhibition at 100 µg/mL of the listed items.
testReadout: zone of inhibition at 100 µg/mL (mm)

> print(dat)
                            smilesstructure  measvalue
1  O=c1c2ccccc2nc(C(F)(F)F)n1Cc1cn(CCC(F)(F)C(F)(F)C(F)(F)C(F)(F)C(F)(F)C(F)(F)C(F)(F)C(F)(F)F)nn1          9
2  O=c1c2ccccc2nc(-c2ccccc2)n1Cc1cn(CCC(F)(F)C(F)(F)C(F)(F)C(F)(F)C(F)(F)C(F)(F)C(F)(F)C(F)(F)F)nn1          9
3  O=c1c2ccccc2nc(-c2c(F)cccc2F)n1Cc1cn(CCC(F)(F)C(F)(F)C(F)(F)C(F)(F)C(F)(F)C(F)(F)F)nn1         10
4  O=c1c2ccccc2nc(-c2ccccc2)n1Cc1cn(CCC(F)(F)C(F)(F)C(F)(F)C(F)(F)C(F)(F)C(F)(F)F)nn1         12

---

system: Candida albicans; assay: Antifungal activity against Candida albicans MTCC 227 at 30 ug/ml after 48 hrs by agar cup diffusion method; format: functional; settings: MTCC 227, 48 h, read-out: DIZ
Quick reference: zone of inhibition at 30 µg/mL of the listed items.
testReadout: zone of inhibition at 30 µg/mL (mm)

> print(dat)
                            smilesstructure  unitlabel  measvalue
1  FC(F)(F)C(F)(F)C(F)(F)C(F)(F)C(F)(F)C(F)(F)C(F)(F)C(F)(F)CCn1nncc1COc1nc(-c2ccccc2)nc2ccccc12         mm          8
2  FC(F)(F)C(F)(F)C(F)(F)C(F)(F)C(F)(F)C(F)(F)CCn1cc(COc2nc(-c3ccccc3)nc3ccccc23)nn1         mm          8
3  FC(F)(F)c1nc(OCc2cn(CCC(F)(F)C(F)(F)C(F)(F)C(F)(F)C(F)(F)C(F)(F)F)nn2)c2ccccc2n1         mm          8
4  O=c1c2ccccc2nc(-c2c(F)cccc2F)n1Cc1cn(CCC(F)(F)C(F)(F)C(F)(F)C(F)(F)C(F)(F)C(F)(F)F)nn1         mm          7

---

system: Aspergillus flavus; assay: Antifungal activity against Aspergillus flavus MTCC 277 at 100 ug/ml after 48 hrs by agar cup diffusion method; format: functional; conditions: MTCC 277, 48 h, read-out: DIZ
Quick reference: zone of inhibition at 100 µg/mL of the listed items.
testReadout: zone of inhibition at 100 µg/mL

> print(dat)
                            smilesstructure        testedtarget  measvalue
1  O=c1c2ccccc2nc(-c2c(F)cccc2F)n1Cc1cn(CCC(F)(F)C(F)(F)C(F)(F)C(F)(F)C(F)(F)C(F)(F)C(F)(F)C(F)(F)F)nn1  Aspergillus flavus       9 mm
2  FC(F)(F)c1nc(OCc2cn(CCC(F)(F)C(F)(F)C(F)(F)C(F)(F)C(F)(F)C(F)(F)F)nn2)c2ccccc2n1  Aspergillus flavus       9 mm
3  O=c1c2ccccc2nc(-c2ccccc2)n1Cc1cn(CCC(F)(F)C(F)(F)C(F)(F)C(F)(F)C(F)(F)C(F)(F)C(F)(F)C(F)(F)F)nn1  Aspergillus flavus       9 mm
4  O=c1c2ccccc2nc(C(F)(F)F)n1Cc1cn(CCC(F)(F)C(F)(F)C(F)(F)C(F)(F)C(F)(F)C(F)(F)C(F)(F)C(F)(F)F)nn1  Aspergillus flavus       9 mm
5  O=c1c2ccccc2nc(C(F)(F)F)n1Cc1cn(CCC(F)(F)C(F)(F)C(F)(F)C(F)(F)C(F)(F)C(F)(F)F)nn1  Aspergillus flavus      12 mm
6  FC(F)(F)C(F)(F)C(F)(F)C(F)(F)C(F)(F)C(F)(F)C(F)(F)C(F)(F)CCn1cc(COc2nc(-c3ccccc3)nc3ccccc23)nn1  Aspergillus flavus      10 mm
7           C#CCn1c(-c2ccccc2)nc2ccccc2c1=O  Aspergillus flavus      12 mm

---

test system: Staphylococcus epidermidis; assay: Antibacterial activity against Staphylococcus epidermidis MTCC 435 by broth dilution method; assay type: functional

smilesStructure	MIC (µg/mL)
C#CCn1c(-c2ccccc2)nc2ccccc2c1=O	37.5
O=c1c2ccccc2nc(C(F)(F)F)n1Cc1cn(CCC(F)(F)C(F)(F)C(F)(F)C(F)(F)C(F)(F)C(F)(F)C(F)(F)C(F)(F)F)nn1	75
FC(F)(F)c1nc(OCc2cn(CCC(F)(F)C(F)(F)C(F)(F)C(F)(F)C(F)(F)C(F)(F)C(F)(F)C(F)(F)F)nn2)c2ccccc2n1	150
O=c1c2ccccc2nc(C(F)(F)F)n1Cc1cn(CCC(F)(F)C(F)(F)C(F)(F)C(F)(F)C(F)(F)C(F)(F)F)nn1	150
FC(F)(F)C(F)(F)C(F)(F)C(F)(F)C(F)(F)C(F)(F)CCn1cc(COc2nc(-c3ccccc3)nc3ccccc23)nn1	75
O=c1c2ccccc2nc(-c2ccccc2)n1Cc1cn(CCC(F)(F)C(F)(F)C(F)(F)C(F)(F)C(F)(F)C(F)(F)F)nn1	150
FC(F)(F)C(F)(F)C(F)(F)C(F)(F)C(F)(F)C(F)(F)C(F)(F)C(F)(F)CCn1cc(COc2nc(-c3ccccc3)nc3ccccc23)nn1	150
C#CCOc1nc(-c2ccccc2)nc2ccccc12	150
O=c1c2ccccc2nc(-c2c(F)cccc2F)n1Cc1cn(CCC(F)(F)C(F)(F)C(F)(F)C(F)(F)C(F)(F)C(F)(F)C(F)(F)C(F)(F)F)nn1	150
O=c1c2ccccc2nc(-c2c(F)cccc2F)n1Cc1cn(CCC(F)(F)C(F)(F)C(F)(F)C(F)(F)C(F)(F)C(F)(F)F)nn1	150
CN[C@@H]1[C@H](O[C@H]2[C@H](O[C@H]3[C@H](O)[C@@H](O)[C@H](N=C(N)N)[C@@H](O)[C@@H]3N=C(N)N)O[C@@H](C)[C@]2(O)C=O)O[C@@H](CO)[C@H](O)[C@H]1O	1.56
FC(F)(F)C(F)(F)C(F)(F)C(F)(F)C(F)(F)C(F)(F)C(F)(F)C(F)(F)CCn1nncc1COc1nc(-c2ccccc2)nc2ccccc12	9.38
FC(F)(F)c1nc(OCc2cn(CCC(F)(F)C(F)(F)C(F)(F)C(F)(F)C(F)(F)C(F)(F)F)nn2)c2ccccc2n1	9.38
O=c1c2ccccc2nc(-c2ccccc2)n1Cc1cn(CCC(F)(F)C(F)(F)C(F)(F)C(F)(F)C(F)(F)C(F)(F)C(F)(F)C(F)(F)F)nn1	75
CC1(C)S[C@@H]2[C@H](NC(=O)Cc3ccccc3)C(=O)N2[C@H]1C(=O)O	3.12
